Measurement record for SARS-CoV M^pro (Severe acute respiratory syndrome-related coronavirus); quantity recorded: pIC50.
Scale note: pIC50 = -log10(concentration in M).

See these solved cases before continuing.
compound	pIC50
O=C(/C=C/c1ccccc1)N[C@H](C(=O)N[C@@H](C[C@@H]1CCNC1=O)C(=O)C(=O)NCc1ccccc1)C1CC1 [11q]	5.20
C#CC[C@H](NC(=O)/C=C/c1ccccc1)C(=O)N[C@@H](C[C@@H]1CCNC1=O)C(=O)C(=O)NCc1ccccc1 [11p]	4.97
O=C(/C=C/c1ccccc1)N[C@@H](CC1CCCCC1)C(=O)N[C@@H](C[C@@H]1CCNC1=O)C(=O)C(=O)NCc1ccccc1 [11r]	6.15
O=C(/C=C/c1ccccc1)N[C@@H](CC1CCCC1)C(=O)N[C@@H](C[C@@H]1CCNC1=O)C(=O)C(=O)NCc1ccccc1 [11u]	5.90
CCCC[C@H](NC(=O)/C=C/c1ccccc1)C(=O)N[C@@H](C[C@@H]1CCNC1=O)C(=O)C(=O)NCc1ccccc1 [11o]	5.07

--- query ---
// fetch pIC50 given entry O=C(/C=C/c1ccccc1)N[C@@H](Cc1ccccc1)C(=O)N[C@@H](C[C@@H]1CCNC1=O)C(=O)C(=O)NCc1ccccc1 [11a]
5.71

---

SARS-CoV M^pro (Severe acute respiratory syndrome-related coronavirus, UniProt P0C6X7): reported IC50 for various compounds.
Please give a number only; it is taken to be in nM.

Reference set (2 entries):
compound	IC50 / nM
CC(C)C[C@H](NC(=O)/C=C/c1ccccc1)C(=O)N[C@@H](C[C@@H]1CCNC1=O)C(=O)C(=O)NCc1ccccc1 [11n]	330
O=C(/C=C/c1ccccc1)N[C@@H](CC1CC1)C(=O)N[C@@H](C[C@@H]1CCNC1=O)C(=O)C(=O)NCc1ccccc1 [11s]	240

// moving on: another record for IC50
Please respond with reported IC50 (system SARS-CoV M^pro (Severe acute respiratory syndrome-related coronavirus, UniProt P0C6X7)) for O=C(/C=C/c1ccccc1)N[C@@H](CC1CCC1)C(=O)N[C@@H](C[C@@H]1CCNC1=O)C(=O)C(=O)NCc1ccccc1 [11t] .
1440
